assay.target: T1, MBP-HAT1 (Arabidopsis thaliana (Col-0), UniProt P46600 1-282)
T1 sequence: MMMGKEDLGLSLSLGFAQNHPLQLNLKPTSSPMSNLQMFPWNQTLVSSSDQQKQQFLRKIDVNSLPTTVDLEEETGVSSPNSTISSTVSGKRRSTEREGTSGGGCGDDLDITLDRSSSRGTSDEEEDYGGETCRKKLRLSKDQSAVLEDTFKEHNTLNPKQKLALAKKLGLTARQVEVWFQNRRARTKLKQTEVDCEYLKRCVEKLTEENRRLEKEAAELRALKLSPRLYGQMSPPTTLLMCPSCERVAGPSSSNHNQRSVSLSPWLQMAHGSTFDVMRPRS
experimental.protocol: EMSA; EMSA: 25 mM HEPES-KOH pH 8.0, 50 mM KCl, 1 mM DTT, 10% glycerol, 20 uL, ~1 ng probe, 30 min on ice; 5% native PAGE, 1x TGE pH 8.7
settings: protein: recombinant; tags: MBP (pETMALc-H); chain copies: 2
measured.parameter: binding result

[[record]]
binder = "NCED3 N1 WT probe (dsDNA) DNA 1: AAAAATTCCAATTATTGTGTTACTCTATTCTTCTAAA DNA 2: TTTAGAAGAATAGAGTAACACAATAATTGGAATTTTT"
obs_value = "binds"

[[record]]
binder = "ABA3 A1 WT probe (dsDNA) DNA 1: ATATTTAATTTAATAATTATTGGTTTAAACAAAATT DNA 2: AATTTTGTTTAAACCAATAATTATTAAATTAAATAT"
obs_value = "binds"

[[record]]
binder = "ABA3 A1 mutant probe (dsDNA) DNA 1: ATATTTAATTGCTGGTCGTTGGTTTAAACAAAATT DNA 2: AATTTTGTTTAAACCAACGACCAGCAATTAAATAT"
obs_value = "no binding"

[[record]]
binder = "NCED3 N1 mutant probe (dsDNA) DNA 1: AAACATTCGCTGGTCGTTGTTACTCTATTCTTCTAAA DNA 2: TTTAGAAGAATAGAGTAACAACGACCAGCGAATGTTT"
obs_value = "no binding"

